test system: Staphylococcus sp.; test: In vitro antibacterial evaluation: minimum inhibitory concentration (MIC), broth dilution method; format: cell-based; settings: strain GC 6257; broth dilution, 18 hours at 35° C.
Observed property: MIC Coagulase Negative Staphylococcus (GC 6257)

# Compound, Result value
records = [
    ("CC(c1ccccc1)C1NC(=O)CNC(=O)C(CO)NC(=O)C(C(O)C2CNC(=N)N2C2OC(CO)C(O)C(O)C2O)NC(=O)C(C(O)C2CNC(=N)N2)NC(=O)C(Cc2ccc(OC3OC(CO)C(OC4OC5COC(Cc6ccccc6)OC5C(O)C4O)C(O)C3O)cc2)NC1=O (stereo not shown)", "0.5 µg/mL"),
    ("CC(c1ccccc1)C1NC(=O)CNC(=O)C(CO)NC(=O)C(C(O)C2CNC(=N)N2C2OC(CO)C(O)C(O)C2O)NC(=O)C(C(O)C2CNC(=N)N2)NC(=O)C(Cc2ccc(OC3OC(CO)C(OC4OC5COC(c6ccc(C(C)(C)C)cc6)OC5C(O)C4O)C(O)C3O)cc2)NC1=O (stereo not shown)", "2 µg/mL"),
    ("CC(C)=CCOc1cccc(C2OCC3OC(OC4C(CO)OC(Oc5ccc(CC6NC(=O)C(C(C)c7ccccc7)NC(=O)CNC(=O)C(CO)NC(=O)C(C(O)C7CNC(=N)N7C7OC(CO)C(O)C(O)C7O)NC(=O)C(C(O)C7CNC(=N)N7)NC6=O)cc5)C(O)C4O)C(O)C(O)C3O2)c1 (stereo not shown)", "8 µg/mL"),
]

Here is the next item to consider.
Query block: For the record CC(c1ccccc1)C1NC(=O)CNC(=O)C(CO)NC(=O)C(C(O)C2CNC(=N)N2C2OC(CO)C(O)C(O)C2O)NC(=O)C(C(O)C2CNC(=N)N2)NC(=O)C(Cc2ccc(OC3OC(CO)C(OC4OC5COC(c6cc7c(cc6Cl)OCO7)OC5C(O)C4O)C(O)C3O)cc2)NC1=O (stereo not shown) , what value of MIC Coagulase Negative Staphylococcus (GC 6257) is listed for Staphylococcus sp.?
Result block: 1 µg/mL

---

system: Enterococcus sp.; assay: In vitro antibacterial evaluation: minimum inhibitory concentration (MIC), broth dilution method; format: cell-based; settings: strain GC 2242
Observed property: MIC Enterococcus faecalis (GC 2242) (µg/mL)
Kindly answer with a numeric value in µg/mL, unit omitted.

Query block: Any idea what its MIC Enterococcus faecalis (GC 2242) is? The compound is CC(c1ccccc1)C1NC(=O)CNC(=O)C(CO)NC(=O)C(C(O)C2CNC(=N)N2C2OC(CO)C(O)C(O)C2O)NC(=O)C(C(O)C2CNC(=N)N2)NC(=O)C(Cc2ccc(OC3OC(CO)C(OC4OC(COC(=O)Cc5ccccc5)C(O)C(O)C4O)C(O)C3O)cc2)NC1=O (stereo not shown) [Example 98c]
Result block: 8

Query block: Please give the result for CC(c1ccccc1)C1NC(=O)CNC(=O)C(CO)NC(=O)C(C(O)C2CNC(=N)N2C2OC(CO)C(O)C(O)C2O)NC(=O)C(C(O)C2CNC(=N)N2)NC(=O)C(Cc2ccc(OC3OC(CO)C(OC4OC(CO)C(O)C5OC(c6ccc(-c7ccsc7)cc6)OC45)C(O)C3O)cc2)NC1=O (stereo not shown) [Example 164a] too.
Result block: 16

Query block: Please give the result for CC(c1ccccc1)C1NC(=O)CNC(=O)C(CO)NC(=O)C(C(O)C2CNC(=N)N2C2OC(CO)C(O)C(O)C2O)NC(=O)C(C(O)C2CNC(=N)N2)NC(=O)C(Cc2ccc(OC3OC(CO)C(OC4OC5COC(c6cc7c(cc6Cl)OCO7)OC5C(O)C4O)C(O)C3O)cc2)NC1=O (stereo not shown) [Example 158] too.
Result block: 4

Query block: Please give the result for CSc1ccc(C2OCC3OC(OC4C(CO)OC(Oc5ccc(CC6NC(=O)C(C(C)c7ccccc7)NC(=O)CNC(=O)C(CO)NC(=O)C(C(O)C7CNC(=N)N7C7OC(CO)C(O)C(O)C7O)NC(=O)C(C(O)C7CNC(=N)N7)NC6=O)cc5)C(O)C4O)C(O)C(O)C3O2)cc1[N+](=O)[O-] (stereo not shown) [Example 168] too.
Result block: 2

---

tested on: Enterococcus sp.; experiment: In vitro antibacterial evaluation: minimum inhibitory concentration (MIC), broth dilution method; type: cell-based; details: Enterococcus faecalis (GC 4552); 18 hours at 35° C.
Source text: […]
Below: a set of entries, each annotated with reported MIC Enterococcus faecalis (GC 4552).
Kindly answer with a numeric value in µg/mL, unit omitted.

For orientation, consider the following solved cases.
# Molecule, Assay system, MIC Enterococcus faecalis (GC 4552) (µg/mL)
records = [
    ("CC(c1ccccc1)C1NC(=O)CNC(=O)C(CO)NC(=O)C(C(O)C2CNC(=N)N2C2OC(CO)C(O)C(O)C2O)NC(=O)C(C(O)C2CNC(=N)N2)NC(=O)C(Cc2ccc(OC3OC(CO)C(OC4OC5COC6(CC7CCC6(C)C7(C)C)OC5C(O)C4O)C(O)C3O)cc2)NC1=O (stereo not shown)", "Enterococcus sp.", 1),
    ("CC(c1ccccc1)C1NC(=O)CNC(=O)C(CO)NC(=O)C(C(O)C2CNC(=N)N2C2OC(CO)C(O)C(O)C2O)NC(=O)C(C(O)C2CNC(=N)N2)NC(=O)C(Cc2ccc(OC3OC(CO)C(OC4OC5COC6(CC(C)(C)CC(C)(C)C6)OC5C(O)C4O)C(O)C3O)cc2)NC1=O (stereo not shown)", "Enterococcus sp.", 4),
]

Query block: Any idea what its MIC Enterococcus faecalis (GC 4552) is? The molecule is CC(c1ccccc1)C1NC(=O)CNC(=O)C(CO)NC(=O)C(C(O)C2CNC(=N)N2C2OC(CO)C(O)C(O)C2O)NC(=O)C(C(O)C2CNC(=N)N2)NC(=O)C(Cc2ccc(OC3OC(CO)C(OC4OC5COC(C)(c6ccc(F)cc6)OC5C(O)C4O)C(O)C3O)cc2)NC1=O (stereo not shown)
Result block: 4

---

tested on: Staphylococcus sp.; experiment: In vitro antibacterial evaluation: minimum inhibitory concentration (MIC), broth dilution method; type: cell-based; conditions: Staphylococcus haemolyticus (GC 4546); 18 hours at 35° C.
From the text: […]
Numbered stars: 1 amine (or outer) side, 2 acyl side, 3 side chain; on linkers, the order of the positions; unused ones are H or OH. Square brackets hold non-standard residues; d marks the D form. Peptide text beside a SMILES is read from it. * marks the point of attachment. ξ: configuration not given here. X1 = N=C1NCC(C(O)C(N[*:1])C(=O)[*:2])N1C1OC(CO)C(O)C(O)C1O; ξEnduracididine(βξ-OH,4'ξ) = N=C1NCC(C(O)C(N)C(=O)O)N1; X2 = OCC1OC(OC2C(CO)OC(*)C(O)C2O)C(O)C(O)C1O; Cha = N[CH](CC1CCCCC1)C(=O)O
Observed property: MIC Staphylococcus haemolyticus (GC 4546) (µg/mL)
Kindly answer with a numeric value in µg/mL, unit omitted.

For orientation, consider the following solved cases.
# Compound, Assay system, Result value
measured = [
    ("CC(c1ccccc1)C1NC(=O)CNC(=O)C(CO)NC(=O)C(C(O)C2CNC(=N)N2C2OC(CO)C(O)C(O)C2O)NC(=O)C(C(O)C2CNC(=N)N2)NC(=O)C(Cc2ccc(OC3OC(CO)C(OC4OC(CO)C(O)C(OCc5ccc(OCc6ccccc6)cc5)C4O)C(O)C3O)cc2)NC1=O (stereo not shown) [Example 231c]", "Staphylococcus sp.", 1),
    ("CC(c1ccccc1)C1NC(=O)CNC(=O)C(CO)NC(=O)C(CC2CNC(=N)N2C2OC(CO)C(O)C(O)C2O)NC(=O)C(CC2CNC(=N)N2)NC(=O)C(Cc2ccc(OC3OC(CO)C(OC4OC(COCc5ccc(OCc6ccccc6)cc5)C(O)C(O)C4O)C(O)C3O)cc2)NC1=O (stereo not shown)", "Staphylococcus sp.", 4),
    ("N=C1NCC(C(O)C2NC(=O)C(Cc3ccc(OC4OC(CO)C(OC5OC(CO)C(O)C(O)C5O)C(O)C4O)cc3)NC(=O)C(CC3CCCCC3)NC(=O)CNC(=O)C(CO)NC(=O)C(C(O)C3CNC(=N)N3C3OC(CO)C(O)C(O)C3O)NC2=O)N1 (stereo not drawn) [Example 263] (cyclo(G[Cha]Y(X2)[ξEnduracididine(βξ-OH,4'ξ)][X1]S); configuration not given here)", "Staphylococcus sp.", 32),
]

Here is the next item to consider.
Query block: Any idea what its MIC Staphylococcus haemolyticus (GC 4546) is? The compound is CCC(C)C(=O)OC1C(CO)OC(OC2C(CO)OC(Oc3ccc(CC4NC(=O)C(C(C)c5ccccc5)NC(=O)CNC(=O)C(CO)NC(=O)C(C(O)C5CNC(=N)N5C5OC(CO)C(O)C(O)C5O)NC(=O)C(C(O)C5CNC(=N)N5)NC4=O)cc3)C(O)C2O)C(O)C1O (stereo not shown) [Example 278c]
Result block: 2

---

Below: a set of entries, each annotated with reported MIC Enterococcus faecalis (GC 4552).
tested on: Enterococcus sp.; experiment: In vitro antibacterial evaluation: minimum inhibitory concentration (MIC), broth dilution method; assay type: cell-based; settings: strain GC 4552

# Compound, Assay system, MIC Enterococcus faecalis (GC 4552)
measured = [
    ("CC(c1ccccc1)C1NC(=O)CNC(=O)C(CO)NC(=O)C(C(O)C2CN(Cc3ccccc3)C(=NCc3ccccc3)N2C2OC(CO)C(O)C(O)C2O)NC(=O)C(C(O)C2CN(Cc3ccccc3)C(=NCc3ccccc3)N2Cc2ccccc2)NC(=O)C(Cc2ccc(OC3OC(CO)C(OC4OC5COC6(OC5C(O)C4O)C4CC5CC(C4)CC6C5)C(O)C3O)cc2)NC1=O (stereo not drawn)", "Enterococcus sp.", "32 µg/mL"),
    ("CC(c1ccccc1)C1NC(=O)CNC(=O)C(CO)NC(=O)C(C(O)C2CNC(=N)N2C2OC(CO)C(O)C(O)C2O)NC(=O)C(C(O)C2CNC(=N)N2)NC(=O)C(Cc2ccc(OC3OC(CO)C(OC4OC5COC(c6cccc(Oc7ccccc7)c6)OC5C(O)C4O)C(O)C3O)cc2)NC1=O (stereo not drawn)", "Enterococcus sp.", "4 µg/mL"),
]

Here is the next item to consider.
Query block: Any idea what its MIC Enterococcus faecalis (GC 4552) is? The compound is CC(=O)n1cc(C2OCC3OC(OC4C(CO)OC(Oc5ccc(CC6NC(=O)C(C(C)c7ccccc7)NC(=O)CNC(=O)C(CO)NC(=O)C(C(O)C7CNC(=N)N7C7OC(CO)C(O)C(O)C7O)NC(=O)C(C(O)C7CNC(=N)N7)NC6=O)cc5)C(O)C4O)C(O)C(O)C3O2)c2ccccc21 (stereo not drawn)
Result block: 16 µg/mL
